Test system: HOP-92 NSCLC
method_notes: NCI-60 one-dose screen, 48 h (100 = growth as untreated, 0 = no growth, -100 = all killed)
experimental_conditions: 10 µM
About 83,000 compounds went through this panel and 20% of them were active in at least one assay; those are over-represented in the sample as a whole.
Quick reference for growth among some compounds
value_type: growth (%)

[[record]]
compound = "COc1cc2c(cc1OC)C(Sc1ccc(F)cc1)c1c(nc(N)c(C#N)c1N)O2 (stereo not drawn)"
unit_string = "%"
reported = -29.4

[[record]]
compound = "CCCCCc1ccc(S(=O)(=O)Nc2cc(-c3csc(NC(=O)CN4CCN(CCO)CC4)n3)ccc2OC)cc1"
unit_string = "%"
reported = 46.8

[[record]]
compound = "Cc1ccc2c(c1)Oc1nc(N)c(C#N)c(N)c1C2Sc1ccc(F)cc1 (stereo not drawn)"
unit_string = "%"
reported = -93.6

[[record]]
compound = "COC(=O)c1ccc(NC2=C/C(=N/S(=O)(=O)c3ccc(C(=O)O)cc3)c3ccccc3C2=O)cc1"
unit_string = "%"
reported = 23.3

[[record]]
compound = "Cc1ccc2c(c1)C13C(=C2Br)CCCN1C(=O)c1ccccc13 (stereo not drawn)"
unit_string = "%"
reported = 78.8

[[record]]
compound = "Cc1cc(S(=O)(=O)N(C)C)cc(NCC(=O)NC(=O)NCC(C)C)c1C"
unit_string = "%"
reported = 84.5

[[record]]
compound = "CC(=O)C1=C(C)NC(NNC(N)=S)=NC1c1ccccc1 (stereo not drawn)"
unit_string = "%"
reported = 78.4

[[record]]
compound = "C=C(C=O)[C@@H]1CC[C@]2(COC(C)=O)CC[C@]3(C)C(CC[C@@H]4[C@@]5(C)CC[C@H](OC(C)=O)C(C)(C)[C@@H]5CC[C@]43C)[C@@H]12 (stereo partly drawn)"
unit_string = "%"
reported = -78.8

[[record]]
compound = "Cc1ccc(-n2cc(/C=N/NC(=O)c3ccncc3)c(-c3ccc(S(C)(=O)=O)cc3)n2)cc1"
unit_string = "%"
reported = 97.5

[[record]]
compound = "NS(=O)(=O)c1ccc(-n2cc(CN3CCNCC3)nn2)cc1"
unit_string = "%"
reported = 113

[[record]]
compound = "CCOC(=O)C(=O)CC(=O)N1C(=S)NC(=O)C1CC(C)C (stereo not drawn)"
unit_string = "%"
reported = 99.6

[[record]]
compound = "Cc1ccc(-c2nn(-c3ccccc3)cc2/C=C/C(=O)c2ccc(NC(=O)CCCCCCC(=O)NO)cc2)cc1"
unit_string = "%"
reported = 96.4

[[record]]
compound = "NC(N)=Nc1ccc(Oc2cccc(NC(N)=Nc3ccc(Br)c(C(F)(F)F)c3)c2)cc1"
unit_string = "%"
reported = 10.5


###

Quick reference for growth among some molecules
Tested on: K-562 leukemia
method_notes: NCI-60 one-dose screen, 48 h (100 = growth as untreated, 0 = no growth, -100 = all killed)
experimental_conditions: 10 µM unless noted
About 83,000 compounds went through this panel and 20% of them were active in at least one assay; those are over-represented in the sample as a whole.
value_type: growth (%)

[[record]]
molecule = "COC(=O)c1[nH]nc2c1C1(C(=O)c3cccc4cccc1c34)C(C#N)=C(N)O2 (centres undefined)"
tgt = "K-562 leukemia"
reported = 91.2

[[record]]
molecule = "COc1cc2nc(Cl)nc(Nc3cccc(C4=Nc5c(N)nc(N)nc5NC(c5ccc(Cl)cc5)C4)c3)c2cc1OC (centres undefined)"
tgt = "K-562 leukemia"
reported = -22

[[record]]
molecule = "CC(C)(O)c1cncc(-c2ccc3ncnc(NCc4ccccc4)c3c2)c1"
tgt = "K-562 leukemia"
reported = 103

[[record]]
molecule = "CS(=O)(=O)c1ncc(-c2ccccc2)cn1"
tgt = "K-562 leukemia"
reported = 93.3

